Cited source for all entries: patent US9969687B2

experimental_system: CCR9 (Homo sapiens (Human), UniProt P51686)
Sequence (P51686 whole entry): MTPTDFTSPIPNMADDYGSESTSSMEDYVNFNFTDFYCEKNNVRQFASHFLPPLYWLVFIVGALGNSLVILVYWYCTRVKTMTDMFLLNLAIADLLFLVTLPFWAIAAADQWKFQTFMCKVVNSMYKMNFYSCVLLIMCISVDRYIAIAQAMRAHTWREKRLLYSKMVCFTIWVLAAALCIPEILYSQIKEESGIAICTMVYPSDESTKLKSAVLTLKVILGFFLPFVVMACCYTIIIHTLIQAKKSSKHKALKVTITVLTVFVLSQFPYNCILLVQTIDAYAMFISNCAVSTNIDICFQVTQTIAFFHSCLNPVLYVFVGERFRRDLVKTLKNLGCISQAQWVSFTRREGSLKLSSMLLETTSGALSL
experimental_details: FLIPR calcium flux assay using hCCR9 over expressed cells (Chem1-hCCR9), TECK stimulation
Assay type: cell-based
settings: Chem1-hCCR9 overexpressing cells
reported_endpoint: Ki (nM)
Could you give me the number in nM? Just the number is fine.

Query string: Look up Ki: COc1ccc(CN2C(=O)c3c(Cl)ccc(NS(=O)(=O)c4ccc(C(C)(C)C)cc4)c3C2=O)cn1 [Compound 235]
Result string: 94

Query string: Param item = COC(=O)c1sccc1N1C(=O)c2c(Cl)ccc(NS(=O)(=O)c3ccc(C(C)(C)C)cc3)c2C1=O [Compound 155] ; retrieve measured Ki.
Result string: 135

Query string: Please look up its Ki: CC(C)(C)c1ccc(S(=O)(=O)Nc2ccc(Cl)c3c2C(=O)N(c2ncccn2)C3=O)cc1 [Compound 250]
Result string: 56

Query string: Which Ki is reported for this molecule? CC(C)(C)c1ccc(S(=O)(=O)Nc2ccc(Cl)c3c2C(=O)N(c2ccccn2)C3=O)cc1 [Compound 222]
Result string: 12

Query string: Which Ki reading was recorded for the molecule COc1ccc(N2C(=O)c3c(Cl)ccc(NS(=O)(=O)c4ccc(C(C)(C)C)cc4)c3C2=O)c(C)[n+]1[O-] [Compound 243] ?
Result string: 115

Query string: Name the recorded Ki for Cc1ccc(CN2C(=O)c3c(Cl)ccc(NS(=O)(=O)c4ccc(C(C)(C)C)cc4)c3C2=O)nc1 [Compound 251] .
Result string: 148

Query string: Which Ki value is on record for COc1cc[n+]([O-])cc1N1C(=O)c2c(Cl)ccc(NS(=O)(=O)c3ccc(C(C)(C)C)cc3)c2C1=O [Compound 189] ?
Result string: 34

Query string: Tell me the measured Ki of CC(C)(C)c1ccc(S(=O)(=O)Nc2ccc(Cl)c3c2C(=O)N(Cc2ncccc2F)C3=O)cc1 [Compound 239] , please.
Result string: 23

Query string: Name the recorded Ki for Cc1cc(C)c(CN2C(=O)c3c(Cl)ccc(NS(=O)(=O)c4ccc(C(C)(C)C)cc4)c3C2=O)c(=O)[nH]1 [Compound 283] .
Result string: 20

Query string: Item Cc1ccc(N2C(=O)c3c(Cl)ccc(NS(=O)(=O)c4ccc(C(C)(C)C)cc4)c3C2=O)nc1 [Compound 226] has what recorded Ki?
Result string: 23

Query string: Value lookup for Ki; key = COc1ccc(N2C(=O)c3c(Cl)ccc(NS(=O)(=O)c4ccc(C(C)(C)C)cc4)c3C2=O)nc1C [Compound 260]
Result string: 22

Query string: Looking for the measured Ki of Cc1cc(N2C(=O)c3c(Cl)ccc(NS(=O)(=O)c4ccc(C(C)(C)C)cc4)c3C2=O)cn(C)c1=O [Compound 285] , can you help?
Result string: 78

Query string: Recorded Ki for CC(C)(C)c1ccc(S(=O)(=O)Nc2ccc(Cl)c3c2C(=O)N(c2cc(C#N)ccn2)C3=O)cc1 [Compound 200] , please?
Result string: 92

Query string: I'd like to know its Ki. The molecule in question is Cc1cc(CN2C(=O)c3c(Cl)ccc(NS(=O)(=O)c4ccc(C(C)(C)C)cc4)c3C2=O)c[n+]([O-])c1 [Compound 262]
Result string: 119

----------
experimental_system: CCR9 (Homo sapiens (Human), UniProt P51686)
experimental_details: FLIPR calcium flux assay using MOLT4 cells, TECK stimulation
Format: cell-based
settings: MOLT4 cells (human T-cell line)
What Ki was measured for each of the following?
# unit: nM | format: bare number

Query string: Given the molecule COc1cccnc1N1C(=O)c2c(Cl)ccc(NS(=O)(=O)c3ccc(C(C)(C)C)cc3)c2C1=O , what is its reported Ki?
Result string: 22

Query string: Consider the molecule N#Cc1cccc(CN2C(=O)c3c(Cl)ccc(NS(=O)(=O)c4ccc(F)c(C(F)(F)F)c4)c3C2=O)c1 and give its measured Ki.
Result string: 220

Query string: Name the recorded Ki for Cc1cc(N2C(=O)c3c(Cl)ccc(NS(=O)(=O)c4ccc(C(C)(C)C)cc4)c3C2=O)c(C)[n+]([O-])c1 .
Result string: 27

Query string: Quick check: Ki of COc1ccc(N2C(=O)c3c(Cl)ccc(NS(=O)(=O)c4ccc(C(C)(C)C)cc4)c3C2=O)c(C)n1 ?
Result string: 14

Query string: // query Ki value for entry O=C1c2c(Cl)ccc(NS(=O)(=O)c3ccc(C(F)(F)F)cc3)c2C(=O)N1c1cccnc1
Result string: 34

Query string: Please look up its Ki: CCOc1cncc(N2C(=O)c3c(Cl)ccc(NS(=O)(=O)c4ccc(C(C)(C)C)cc4)c3C2=O)c1
Result string: 128

Query string: Which Ki value is on record for CC(C)(C)c1ccc(S(=O)(=O)Nc2cccc3c2C(=O)N(c2ccc(C#N)cc2)C3=O)cc1 ?
Result string: 1210
